target: phosphorylated c-Met (Homo sapiens, UniProt P08581)
Sequence (P08581 956-1390 limits assumed): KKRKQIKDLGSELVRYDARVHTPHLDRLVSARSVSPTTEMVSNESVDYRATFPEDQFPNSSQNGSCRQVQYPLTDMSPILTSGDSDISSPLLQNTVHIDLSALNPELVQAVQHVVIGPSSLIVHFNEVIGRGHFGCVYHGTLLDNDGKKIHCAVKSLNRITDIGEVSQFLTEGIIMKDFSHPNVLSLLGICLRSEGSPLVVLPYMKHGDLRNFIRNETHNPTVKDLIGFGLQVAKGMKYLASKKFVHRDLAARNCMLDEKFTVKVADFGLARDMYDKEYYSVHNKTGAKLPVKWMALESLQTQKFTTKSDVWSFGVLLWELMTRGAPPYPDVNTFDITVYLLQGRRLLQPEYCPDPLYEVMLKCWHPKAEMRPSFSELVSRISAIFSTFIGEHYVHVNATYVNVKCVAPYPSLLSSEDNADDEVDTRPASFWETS
result.type: IC50 (nM)
Only the number, expressed in nM, is required.

Record summary for `Cc1[nH]c(/C=C2\C(=O)Nc3ccc(S(=O)(=O)N(C)c4cccc(Cl)c4)cc32)c(C)c1C(=O)N1CCN(C)CC1` : reported IC50 = 275

* * *

test system: SNU5 gastric cancer cell line in which c-Met is amplified; assay: SNU5 proliferation assay; type: cell-based; conditions: Homo sapiens, SNU-5, read-out: IC50 in SNU5 proliferation assays
result.type: IC50 (nM)
Answer format: numeric, nM implied, no suffix.

Value of measured IC50 for the entry `Cc1[nH]c(/C=C2\C(=O)Nc3ccc(S(=O)(=O)N(C)c4cccc(Cl)c4)cc32)c(C)c1C(=O)N1CCN(C)CC1` : 30
